Test system: HeLa
Experiment: Cytotoxicity against human HeLa cells at 200 ug/ml after 24 hrs by MTT based colorimetric assay
Assay type: cell-based
readout.label: Activity

# annotated cases, reported Activity shown
[[record]]
compound = "Cc1nccn1CCC(O)c1ccccc1 (stereo unspecified)"
test_result = "Non-toxic"

[[record]]
compound = "Cc1ncc([N+](=O)[O-])n1C/C=C/c1ccccc1"
test_result = "Non-toxic"

[[record]]
compound = "O=C(CCn1cnc2ccccc21)c1ccccc1"
test_result = "Non-toxic"

[[record]]
compound = "O=[N+]([O-])c1cn(CCC(Oc2ccc(C(F)(F)F)cc2)c2ccccc2)cn1 (stereo unspecified)"
test_result = "Non-toxic"

[[record]]
compound = "C(=C\\c1ccccc1)/Cn1ccnc1"
test_result = "Non-toxic"


Could you now look at the following compound, please?
Req: Write down the reported Activity of FC(F)(F)c1ccc(OC(CCn2ccnc2)c2ccccc2)cc1 (stereo unspecified) , test system: HeLa.
Resp: Toxic

###

log10 of MIC reference
Test system: Trichomonas vaginalis
Test: Antitrichomonas activity against Trichomonas vaginalis after 48 hrs by trypan blue exclusion assay
Format: functional
Please note: log10 values; quantity MIC; unit µg/mL.

Solved cases below.
[[record]]
molecule = "O=C(CCn1cnc2ccccc21)c1ccccc1"
test_result = 2.30

[[record]]
molecule = "O=C(CCn1nnc2ccccc21)c1ccccc1"
test_result = 2.30


Now for the molecule whose log10 of MIC we want.
Req: Would you kindly share the measured log10 of MIC for Cc1ncc([N+](=O)[O-])n1CCO [METRONIDAZOLE] ?
Resp: 0.30

###

System: Spermatozoa
Experiment: Spermicidal activity against human spermatozoa assessed as immobilization measured for 60 seconds by visual scoring
Assay type: functional
Set-up: concentration or dose not given beside the values
readout.label: Activity (%)
Number only, in %; omit the unit.

Req: Which Activity is listed for O=[N+]([O-])c1cn(CCC(O)c2ccccc2)cn1 (stereo not drawn) ?
Resp: 95

Req: Entry Cc1ncc([N+](=O)[O-])n1CCC(O)c1ccccc1 (stereo not drawn) please
Resp: 70

Req: Try the compound FC(F)(F)c1ccc(OC(CCn2ccnc2)c2ccccc2)cc1 (stereo not drawn)
Resp: 100

###

System: Spermatozoa
Test: Spermicidal activity against human spermatozoa assessed as immobilization measured for 60 seconds by visual scoring
Type: functional
Design: concentration or dose not given beside the values
Quick reference: Activity of the listed items.
Write it as a number; the unit % goes unstated.

[[record]]
compound = "FC(F)(F)c1ccc(OC(CCn2cnc3ccccc32)c2ccccc2)cc1 (stereo unspecified)"
test_result = 50

[[record]]
compound = "OC(CCn1cncn1)c1ccccc1 (stereo unspecified)"
test_result = 70

[[record]]
compound = "Cc1ncc([N+](=O)[O-])n1CCC(=O)c1ccccc1"
test_result = 90

[[record]]
compound = "O=C(CCn1ccnc1)c1ccccc1"
test_result = 100

[[record]]
compound = "Cc1ncc([N+](=O)[O-])n1CCC(Oc1ccc(C(F)(F)F)cc1)c1ccccc1 (stereo unspecified)"
test_result = 70


Turning now to a further record.
Req: Given the entry O=C(CCn1cnc2ccccc21)c1ccccc1 , report its measured Activity.
Resp: 100

###

Test: Toxicity against Lactobacillus acidophilus at 200 ug/ml after 24 hrs by microplate reader
readout.label: Activity

[[record]]
molecule = "Cc1ncc([N+](=O)[O-])n1CCC(Oc1ccc(C(F)(F)F)cc1)c1ccccc1 (stereo unspecified)"
test_result = "Non-toxic"

[[record]]
molecule = "FC(F)(F)c1ccc(OC(CCn2nnc3ccccc32)c2ccccc2)cc1 (stereo unspecified)"
test_result = "Non-toxic"

[[record]]
molecule = "O=C(CCn1cnc([N+](=O)[O-])c1)c1ccccc1"
test_result = "Non-toxic"

[[record]]
molecule = "FC(F)(F)c1ccc(OC/C=C/c2ccccc2)cc1"
test_result = "Non-toxic"


Req: Item under review: Cc1ncc([N+](=O)[O-])n1C/C=C/c1ccccc1 . Reported Activity?
Resp: Non-toxic

Req: Try the molecule CCCCCCCCCc1ccc(OCCOCCOCCOCCOCCOCCOCCOCCOCCO)cc1
Resp: Non-toxic

Req: Consider next the molecule FC(F)(F)c1ccc(OC(CCn2cncn2)c2ccccc2)cc1 (stereo unspecified) in the same way.
Resp: Toxic

Req: Try OC(CCn1cnc2ccccc21)c1ccccc1 (stereo unspecified) next.
Resp: Non-toxic

Req: Do the same for O=C(CCn1cnc2ccccc21)c1ccccc1 please
Resp: Non-toxic

Req: Consider next the molecule Cc1nccn1CCC(O)c1ccccc1 (stereo unspecified) in the same way.
Resp: Non-toxic

Req: Quick one: Cc1ncc([N+](=O)[O-])n1CCC(O)c1ccccc1 (stereo unspecified)
Resp: Non-toxic

Req: # repeat for FC(F)(F)c1ccc(OC(CCn2cnc3ccccc32)c2ccccc2)cc1 (stereo unspecified)
Resp: Toxic

Req: Would you kindly repeat that for Cc1nccn1CCC(Oc1ccc(C(F)(F)F)cc1)c1ccccc1 (stereo unspecified) ?
Resp: Toxic

Req: Lookup Cc1ncc([N+](=O)[O-])n1CCC(=O)c1ccccc1
Resp: Non-toxic

###

System: Spermatozoa
Assay: Spermicidal activity against human spermatozoa assessed as immobilization measured for 60 seconds by visual scoring
Format: functional
Set-up: concentration or dose not given beside the values
Listed next: entries and their corresponding Activity.
Please format your answer as a value with the unit trailing.

Use the examples below as a reference point.
[[record]]
compound = "Cc1nccn1CCC(Oc1ccc(C(F)(F)F)cc1)c1ccccc1 (configuration not stated)"
test_result = "100%"

[[record]]
compound = "O=C(CCn1nnc2ccccc21)c1ccccc1"
test_result = "80%"

[[record]]
compound = "O=C(CCn1cncn1)c1ccccc1"
test_result = "60%"

[[record]]
compound = "O=[N+]([O-])c1cn(CCC(Oc2ccc(C(F)(F)F)cc2)c2ccccc2)cn1 (configuration not stated)"
test_result = "40%"

[[record]]
compound = "OC(CCn1cnc2ccccc21)c1ccccc1 (configuration not stated)"
test_result = "90%"

[[record]]
compound = "OC(CCn1nnc2ccccc21)c1ccccc1 (configuration not stated)"
test_result = "100%"


Req: I am curious: what Activity value has been reported for Cc1ncc([N+](=O)[O-])n1C/C=C/c1ccccc1 ?
Resp: 90%

###

Tested on: HeLa
Assay: Cytotoxicity against human HeLa cells at 200 ug/ml after 24 hrs by MTT based colorimetric assay
Assay type: cell-based
readout.label: Activity

[[record]]
compound = "FC(F)(F)c1ccc(OC/C=C/c2ccccc2)cc1"
target_system = "HeLa"
test_result = "Non-toxic"

[[record]]
compound = "Cc1nccn1CCC(Oc1ccc(C(F)(F)F)cc1)c1ccccc1 (stereo not given)"
target_system = "HeLa"
test_result = "Toxic"

[[record]]
compound = "Cc1ncc([N+](=O)[O-])n1CCC(=O)c1ccccc1"
target_system = "HeLa"
test_result = "Non-toxic"

[[record]]
compound = "O=[N+]([O-])c1cn(C/C=C/c2ccccc2)cn1"
target_system = "HeLa"
test_result = "Non-toxic"

[[record]]
compound = "OC(CCn1cnc2ccccc21)c1ccccc1 (stereo not given)"
target_system = "HeLa"
test_result = "Non-toxic"

[[record]]
compound = "O=[N+]([O-])c1cn(CCC(O)c2ccccc2)cn1 (stereo not given)"
target_system = "HeLa"
test_result = "Non-toxic"

[[record]]
compound = "O=C(CCn1nnc2ccccc21)c1ccccc1"
target_system = "HeLa"
test_result = "Non-toxic"

[[record]]
compound = "O=C(CCn1ccnc1)c1ccccc1"
target_system = "HeLa"
test_result = "Non-toxic"


Req: Query the reported Activity for HeLa; item: Cc1ncc([N+](=O)[O-])n1CCC(Oc1ccc(C(F)(F)F)cc1)c1ccccc1 (stereo not given)
Resp: Non-toxic

Req: What would you report for O=C(CCn1cncn1)c1ccccc1 ?
Resp: Non-toxic

Req: Also FC(F)(F)c1ccc(OC(CCn2nnc3ccccc32)c2ccccc2)cc1 (stereo not given) ?
Resp: Non-toxic

Req: Can you check FC(F)(F)c1ccc(OC(CCn2cncn2)c2ccccc2)cc1 (stereo not given) next?
Resp: Toxic

###

System: Candida albicans
Assay: Antifungal activity against Candida albicans isolate CDRI after 48 hrs by broth microdilution assay
Type: functional
readout.label: MIC (µg/mL)
Write the answer as a number in µg/mL, unit excluded.

Please review the entries below; each comes with its answer.
[[record]]
compound = "Cc1nccn1CCC(=O)c1ccccc1"
readout_label = "MIC"
value_units = "µg/mL"
test_result = 50

[[record]]
compound = "C(=C\\c1ccccc1)/Cn1ccnc1"
readout_label = "MIC"
value_units = "µg/mL"
test_result = 25

[[record]]
compound = "OC(Cn1cncn1)(Cn1cncn1)c1ccc(F)cc1F"
readout_label = "MIC"
value_units = "µg/mL"
test_result = 0.25

[[record]]
compound = "FC(F)(F)c1ccc(OC/C=C/c2ccccc2)cc1"
readout_label = "MIC"
value_units = "µg/mL"
test_result = 50


Req: Item Cc1ncc([N+](=O)[O-])n1CCC(=O)c1ccccc1 with Candida albicans - MIC?
Resp: 50

Req: Next compound: OC(CCn1ccnc1)c1ccccc1 (configuration not stated)
Resp: 50

Req: For OC(CCn1cnc2ccccc21)c1ccccc1 (configuration not stated) then?
Resp: 50

Req: And O=C(CCn1cncn1)c1ccccc1 ?
Resp: 50

Req: Next compound up: O=C(CCn1cnc([N+](=O)[O-])c1)c1ccccc1
Resp: 50

Req: Please do the same for FC(F)(F)c1ccc(OC(CCn2ccnc2)c2ccccc2)cc1 (configuration not stated) as well.
Resp: 50

Req: Likewise for O=[N+]([O-])c1cn(CCC(O)c2ccccc2)cn1 (configuration not stated) ?
Resp: 50

Req: // same read-out, input: O=C(CCn1cnc2ccccc21)c1ccccc1
Resp: 25

Req: Subsequent entry: OC(CCn1nnc2ccccc21)c1ccccc1 (configuration not stated)
Resp: 50

Req: Here is the next compound: O=C(CCn1ccnc1)c1ccccc1
Resp: 50

Req: Same question for Cc1nccn1CCC(Oc1ccc(C(F)(F)F)cc1)c1ccccc1 (configuration not stated) please.
Resp: 50

Values from ChEMBL document CHEMBL1641578
